// molecules with reported pKi on 5-hydroxytryptamine receptor 1A (Rattus norvegicus, UniProt P19327), multi-publication
# tgt: 5-hydroxytryptamine receptor 1A (Rattus norvegicus, UniProt P19327)
# Sequence (P19327 whole entry): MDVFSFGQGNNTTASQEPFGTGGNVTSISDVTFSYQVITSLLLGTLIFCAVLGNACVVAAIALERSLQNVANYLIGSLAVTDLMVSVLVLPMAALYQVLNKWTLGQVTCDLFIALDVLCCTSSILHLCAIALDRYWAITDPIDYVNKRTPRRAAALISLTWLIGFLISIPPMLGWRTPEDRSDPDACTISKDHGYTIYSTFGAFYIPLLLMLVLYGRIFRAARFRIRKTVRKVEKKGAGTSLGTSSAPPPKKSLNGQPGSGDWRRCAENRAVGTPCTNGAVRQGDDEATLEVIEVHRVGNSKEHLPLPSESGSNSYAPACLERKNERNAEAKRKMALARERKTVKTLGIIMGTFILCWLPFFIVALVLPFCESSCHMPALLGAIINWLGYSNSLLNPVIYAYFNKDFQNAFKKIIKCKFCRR
In textbook form, pKi equals minus log to base ten of the concentration in mol/L.

Please give the measured pKi for this molecule: COc1ccc2[nH]cc(C3CCN(CCCCn4c(=O)c(-c5ccccc5F)c5ccccn5c4=O)CC3)c2c1
7.78

Would you kindly share the measured pKi for COc1ccccc1N1CCN(CCCCCN2Cc3ccc4ccccc4c3C2=O)CC1 ?
8.80

Form field: reported pKi of O=C(NC1CCN(CCc2ccc(C(F)(F)F)cc2)C1)C12CC3CC(CC(C3)C1)C2 (stereo unspecified)
7.04

Quick check: pKi of Cn1c(=O)c2c(nc3n(CCCN4CCN(c5ccccc5)CC4)ccn23)n(C)c1=O ?
7.61

Quick one: pKi of Cl.Cn1c(=O)c2c(ncn2CCCCCN2CCN(c3ccccc3)CC2)n(C)c1=O ?
7.96

Further cases:
Need pKi, item O=C1CC(=C(c2ccccc2)c2ccccc2)C(=O)N1CN1CCN(c2cccc(C(F)(F)F)c2)CC1
7.22

Find the recorded pKi belonging to CCN(CCCCN1CCC2CCCCC2C1)S(=O)(=O)c1cnc2ccccc2c1 (stereo unspecified) and report it.
6.49

Recorded pKi of Cc1ccccc1N1CCN(CCCN2CC(=O)N3CCCC3C2=O)CC1 (stereo unspecified) , please.
7.32

Fill blank: measured pKi of the molecule CC(C)Oc1ccccc1N1CCN(Cc2ccc(C(=O)N3CCCCCC3)s2)CC1.Cl is ____.
8.49

Fill in the blank: the reported pKi of CCCOC(=O)c1ccccc1N1CCN(CCCCN2C(=O)C3CCCN3C2=O)CC1 (stereo unspecified) is ____.
8.32
